Values from ChEMBL document CHEMBL1133696

measuredTarget: Bifunctional dihydrofolate reductase-thymidylate synthase (Plasmodium falciparum K1) (UniProt P13922)
Sequence (P13922 whole entry, looked up): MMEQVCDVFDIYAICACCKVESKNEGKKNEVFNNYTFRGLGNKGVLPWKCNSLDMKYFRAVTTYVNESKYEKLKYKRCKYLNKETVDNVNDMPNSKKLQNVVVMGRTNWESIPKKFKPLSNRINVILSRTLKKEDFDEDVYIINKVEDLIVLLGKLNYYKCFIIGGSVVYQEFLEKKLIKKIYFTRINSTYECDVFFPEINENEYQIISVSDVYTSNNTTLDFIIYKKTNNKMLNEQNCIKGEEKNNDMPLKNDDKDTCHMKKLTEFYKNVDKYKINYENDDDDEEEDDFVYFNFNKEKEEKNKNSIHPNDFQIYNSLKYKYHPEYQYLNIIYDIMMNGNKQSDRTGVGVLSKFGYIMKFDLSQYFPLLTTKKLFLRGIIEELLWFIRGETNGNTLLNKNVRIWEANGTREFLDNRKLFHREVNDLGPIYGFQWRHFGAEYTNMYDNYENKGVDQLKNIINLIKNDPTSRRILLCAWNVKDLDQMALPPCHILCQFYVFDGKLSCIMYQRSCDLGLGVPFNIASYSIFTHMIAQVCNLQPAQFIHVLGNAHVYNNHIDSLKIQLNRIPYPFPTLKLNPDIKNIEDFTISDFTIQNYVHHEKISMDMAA
method: Ratio of inhibitory constant of mutant by wild-type DHFRs of Plasmodium falciparum
assayEndpoint: Ratio

-- ask Please give the measured Ratio for this compound: CCC1N=C(N)N=C(N)N1c1ccc(Br)cc1 (stereo not given)
-- reply 37

-- ask What value of Ratio has been recorded for this entry: CC(C)C1N=C(N)N=C(N)N1c1ccc(Cl)cc1 (stereo not given)
-- reply 25

-- ask If you can, please state the reported Ratio value of NC1=NCN(c2ccc(F)cc2)C(N)=N1 .
-- reply 1.7

-- ask Look at this compound and give its reported Ratio. CCCCC1N=C(N)N=C(N)N1c1ccc(Cl)cc1 (stereo not given)
-- reply 45

-- ask Entry under review: CC1N=C(N)N=C(N)N1c1ccc(Cl)cc1 (stereo not given) . Reported Ratio?
-- reply 31

-- ask I am curious: what Ratio value has been reported for CC1(C)N=C(N)N=C(N)N1c1ccccc1 ?
-- reply 69

-- ask Fill in: Ratio of NC1=NCN(c2ccccc2)C(N)=N1 is ___
-- reply 1.8

-- ask Param item = CCC1N=C(N)N=C(N)N1c1ccc(C)cc1 (stereo not given) ; retrieve measured Ratio.
-- reply 22

-- ask // returns reported Ratio for input CC1(C)N=C(N)N=C(N)N1c1ccc(F)cc1
-- reply 355

-- ask Query (compound): CCCC1N=C(N)N=C(N)N1c1ccc(Cl)cc1 (stereo not given) ; field requested: Ratio
-- reply 23

-- ask # query: Ratio of entry Cc1ccc(N2C(N)=NC(N)=NC2C)cc1 (stereo not given)
-- reply 7.9

-- ask Endpoint output: Ratio of CC1(C)N=C(N)N=C(N)N1c1ccc(Cl)c(Cl)c1 . Value?
-- reply 119

-- ask Could you tell me which Ratio is on file for CCCC1N=C(N)N=C(N)N1c1ccc(Br)cc1 (stereo not given) ?
-- reply 49

-- ask Field request: Ratio | item: CC1N=C(N)N=C(N)N1c1ccc(Br)cc1 (stereo not given)
-- reply 35

-- ask Which Ratio value is on record for NC1=NCN(c2ccc(Cl)cc2)C(N)=N1 ?
-- reply 26

-- ask // lookup Ratio for CC1N=C(N)N=C(N)N1c1ccc(Cl)c(Cl)c1 (stereo not given)
-- reply 12.7

-- ask Look at this compound and give its reported Ratio. CCC1N=C(N)N=C(N)N1c1ccc(Cl)cc1 (stereo not given)
-- reply 52

-- ask Could you share which Ratio value was measured for CC1(C)N=C(N)N=C(N)N1c1ccc(Cl)cc1 ?
-- reply 876

-- ask What measured Ratio goes with Cc1ccc(N2C(N)=NC(N)=NC2c2ccccc2)cc1 (stereo not given) ?
-- reply 22

-- ask Look up Ratio for this compound: CCCC1N=C(N)N=C(N)N1c1ccc(C)cc1 (stereo not given)
-- reply 14

-- ask Looking for the measured Ratio of NC1=NC(c2ccccc2)N(c2ccc(Br)cc2)C(N)=N1 (stereo not given) , can you help?
-- reply 31

-- ask Given the compound Cc1ccc(N2C(N)=NC(N)=NC2C(C)C)cc1 (stereo not given) , what is its reported Ratio?
-- reply 8.7

-- ask What does the data say about its Ratio? Entry: CC1(C)N=C(N)N=C(N)N1c1ccc(Br)cc1
-- reply 1770

-- ask I would be grateful if you could share the reported Ratio for NC1=NC(c2ccccc2)N(c2cccc(Cl)c2)C(N)=N1 (stereo not given) .
-- reply 0.9

-- ask What value of measured Ratio is listed for CC(C)C1N=C(N)N=C(N)N1c1ccc(Br)cc1 (stereo not given) ?
-- reply 40
